target-or-system: T1, FZD6 cysteine-rich domain (CRD), MYC-tagged and GPI-anchored on CHO cells (human, UniProt O60353 20-146, GPI anchor)
T1 construct: also called FZD6 CRD; CHO-myc-FZDGPI; not shown: MYC tag and GPI anchor signal
T1 sequence: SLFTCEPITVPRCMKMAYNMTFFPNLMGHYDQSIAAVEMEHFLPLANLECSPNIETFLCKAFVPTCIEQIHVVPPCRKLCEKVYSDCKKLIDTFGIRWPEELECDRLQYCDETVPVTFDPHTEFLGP
measurement-protocol: immunofluorescence, CHO-CRD cells
measure: binding result

[[record]]
binder = "Fab-2935 (Fab, V domains shown, Fab; also called Fv-2935) VH: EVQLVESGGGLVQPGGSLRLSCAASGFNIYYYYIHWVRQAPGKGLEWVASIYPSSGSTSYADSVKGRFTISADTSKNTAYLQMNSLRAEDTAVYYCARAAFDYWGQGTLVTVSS VL: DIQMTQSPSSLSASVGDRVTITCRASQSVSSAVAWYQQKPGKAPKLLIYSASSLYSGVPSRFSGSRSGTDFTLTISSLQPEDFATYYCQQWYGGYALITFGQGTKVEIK"
measure = "binding result"
test_value = "no binding"

[[record]]
binder = "Fab-2901 (Fab, V domains shown, Fab; also called Fv-2901) VH: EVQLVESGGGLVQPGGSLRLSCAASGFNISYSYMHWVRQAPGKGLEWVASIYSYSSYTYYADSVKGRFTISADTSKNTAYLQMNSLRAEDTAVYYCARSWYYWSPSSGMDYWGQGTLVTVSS VL: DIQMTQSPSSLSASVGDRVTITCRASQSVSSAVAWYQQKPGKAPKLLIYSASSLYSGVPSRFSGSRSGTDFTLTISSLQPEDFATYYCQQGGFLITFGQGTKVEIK"
measure = "binding result"
test_value = "no binding"

[[record]]
binder = "Fab-2926 (Fab, V domains shown, Fab; also called Fv-2926) VH: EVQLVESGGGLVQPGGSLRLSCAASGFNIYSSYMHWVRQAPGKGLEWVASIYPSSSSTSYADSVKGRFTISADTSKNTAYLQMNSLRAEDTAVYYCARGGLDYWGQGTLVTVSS VL: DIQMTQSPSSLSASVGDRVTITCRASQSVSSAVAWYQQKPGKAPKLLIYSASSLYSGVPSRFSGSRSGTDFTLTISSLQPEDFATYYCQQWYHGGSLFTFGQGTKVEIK"
measure = "binding result"
test_value = "no binding"

[[record]]
binder = "Fab-2911 (Fab, V domains shown, Fab; also called Fv-2911) VH: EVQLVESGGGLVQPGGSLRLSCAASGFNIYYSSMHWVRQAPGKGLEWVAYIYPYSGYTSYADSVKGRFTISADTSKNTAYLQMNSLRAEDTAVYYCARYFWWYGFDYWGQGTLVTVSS VL: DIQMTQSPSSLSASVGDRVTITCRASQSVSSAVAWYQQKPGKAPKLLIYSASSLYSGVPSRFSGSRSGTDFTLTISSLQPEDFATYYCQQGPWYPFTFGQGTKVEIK"
measure = "binding result"
test_value = "no binding"

[[record]]
binder = "Fab-2931 (Fab, V domains shown, Fab; also called Fv-2931) VH: EVQLVESGGGLVQPGGSLRLSCAASGFNLSYSSMHWVRQAPGKGLEWVAYISPYSGSTYYADSVKGRFTISADTSKNTAYLQMNSLRAEDTAVYYCARGSYWYVGGGWWVSGHGGMDYWGQGTLVTVSS VL: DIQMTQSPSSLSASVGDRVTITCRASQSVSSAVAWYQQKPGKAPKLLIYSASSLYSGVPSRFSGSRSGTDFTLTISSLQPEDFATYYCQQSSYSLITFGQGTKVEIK"
measure = "binding result"
test_value = "no binding"

